system under test: M4 muscarinic receptor (Homo sapiens, UniProt P08173)
Sequence (P08173 whole entry): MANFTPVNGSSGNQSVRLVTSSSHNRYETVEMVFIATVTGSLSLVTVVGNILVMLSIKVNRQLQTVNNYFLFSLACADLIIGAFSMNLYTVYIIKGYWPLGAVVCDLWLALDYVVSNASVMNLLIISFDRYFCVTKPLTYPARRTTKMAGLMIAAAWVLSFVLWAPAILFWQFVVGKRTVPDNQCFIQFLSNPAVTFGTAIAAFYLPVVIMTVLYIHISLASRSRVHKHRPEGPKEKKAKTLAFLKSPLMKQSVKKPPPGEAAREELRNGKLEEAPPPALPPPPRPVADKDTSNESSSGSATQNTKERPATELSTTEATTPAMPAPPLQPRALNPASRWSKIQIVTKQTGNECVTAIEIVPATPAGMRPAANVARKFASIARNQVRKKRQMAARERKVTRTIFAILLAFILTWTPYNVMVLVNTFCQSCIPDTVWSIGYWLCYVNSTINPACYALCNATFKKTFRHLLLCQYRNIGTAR
protocol notes: inhibition of forskolin-stimulated cAMP, M4 CHO cells (M4Gi)
Type: cell-based
Set-up: host or cells: CHO cells, stably transfected
condition parameters: M4Gi (↓cAMP), Table 8
quantity: E′MAX
# include the unit after the value

Qu. Notebook entry, M4 muscarinic receptor (Homo sapiens, UniProt P08173) assay: E′MAX of O=C1CCCN1CC#CCN1CCCC1 [oxotremorine, reference compound] = ?
Ans. 48 ± 2 % inhibition

Qu. For the record C1=CCN(Cc2cccs2)CC1.Cl [Compound 6A] , what value of E′MAX is listed for M4 muscarinic receptor (Homo sapiens, UniProt P08173)?
Ans. 25 ± 2 % inhibition

Qu. Given the entry C[N+](C)(C)CCOC(N)=O [carbachol, reference compound] , what E′MAX was observed with M4 muscarinic receptor (Homo sapiens, UniProt P08173)?
Ans. 55 ± 2 % inhibition

Qu. Could you share what E′MAX was measured for C[N+]1(Cc2cccs2)CC=CCC1.[I-] (stereo not shown) [Compound 7A] , tested on M4 muscarinic receptor (Homo sapiens, UniProt P08173)?
Ans. 39 ± 2 % inhibition

Data provenance: patent US11591323B2
